Known apparent KD of MS2 coat protein of a selection of sequences
System: MS2 coat protein
PROTOCOL SUMMARY: apparent KD of MS2 coat protein; designed switch direction (-1 OFF switch, 1 ON switch): -1; higher = weaker reporter binding
MEASUREMENT CONTEXT: Eterna round: R95; input ligand: microRNA oligo, concentration not stated
EXPERIMENTAL ENDPOINT: apparent KD of MS2 coat protein

- RESIDUE STRING: "CAUGUCUGAGGAUAUCGUUUUUUGUACAUGAGGAUCACCCAUGUCCUAUUUUUUUUAUUUCGAGAAGGCAGUGUAU [JR_E5_Sub092] (puzzle: Exclusion 5)"
  RECORDED VALUE: "0.0326 µM"
- RESIDUE STRING: "CCGAAGUGGCGGUCCUAUGACAUGAGGAUCACCCAUGUACUUCGCCACGAGCUUUUUGCUCGUCUUAUAGUUCUCGG [Sensor v3, turn-off variant 1 (MOD of Ator)] (puzzle: Sensor v3, turn-off variant 1)"
  RECORDED VALUE: "0.0324 µM"
- RESIDUE STRING: "CUAGAUCUUCGGAUCUAGUACAUGAGGAUCACCCAUGUUACGAGCAGAUCUUCAUACAAGCUUUUUGCUCGUCUUAU [Sensor v3 - Turn-off variant 1 - 33] (puzzle: Sensor v3, turn-off variant 1)"
  RECORDED VALUE: "0.0195 µM"
- RESIDUE STRING: "GGAUCGAGUGUGAGGAUAUACCACUGGAUACAGUGGUAGAAGGCACAUGAGGAUCACCCAUGUCCUUACGAUCC [Fiskers BMX 4 - 46] (puzzle: Brourd's mod of Exclusion 4)"
  RECORDED VALUE: "0.066 µM"
- RESIDUE STRING: "CCAUCGAGUGUGAGGAUAUGCUGGUCCUUGGAUCAGCAGAAGGCACAUGAGGAUCACCCAUGUGAAUACGGUGG [JL bmx4 3.20] (puzzle: Brourd's mod of Exclusion 4)"
  RECORDED VALUE: "0.0283 µM"

###

As shown below, each of these sequences has a reported apparent KD of K4 kissing-loop reporter value.
Test system: K4 kissing-loop RNA reporter;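 also: bound reporter read as fluorescence of individual clusters on recovered sequencing chips by microscopy, with normalized cluster intensities fitted with a binding model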
PROTOCOL SUMMARY: apparent KD of K4 kissing-loop reporter; higher = weaker reporter binding
MEASUREMENT CONTEXT: Eterna round: R107; input ligand: FMN 200 uM

- RESIDUE STRING: "CGAUUUGCUUCAGCCUUAGUGAUGUUAAGGCGAGGACCGGUACGGCCGCCACUCGUAGGUUAUGUGCACGGCGGCGCUAAGGGCC [theeternabot_exclusion_KL_Trp_A_36]"
  apparent KD of K4 kissing-loop reporter / nM: 109
- RESIDUE STRING: "AGUGAUGUGGGAAGGAGCGGUAUAUGAGUUCAGUGAUGUUGAAGUGAUGAUAUAGUGAUGUGCCAGGUAGGUCGCCUAGAUGUUA [KL-XARG-B5]"
  apparent KD of K4 kissing-loop reporter / nM: 281
- RESIDUE STRING: "CCCGCGUCGUUAGUGAUGUUGACUUCUGAUACCAGUCGCAGGUAGGACCCUUGGCAGCAGCAGUUUUGUUAUAUGUAGGAUCCAG [theeternabot_exclusion_KL_Theo_A_36]"
  apparent KD of K4 kissing-loop reporter / nM: 727
- RESIDUE STRING: "UUCUAACACACCGAUACCAGAGCCCAGUGAUGUUGGGCCUAGGUCGGAUGCUCACUGACGCUCCCUUGGCAGCGGUGGGCUAACC [Arreisve]"
  apparent KD of K4 kissing-loop reporter / nM: 127
- RESIDUE STRING: "GGCACGUUCCCUUGAUCAGUGAUGUUGUUUCGAGGACCGGUACGGCCGCCACUCGCUCGGCGUUCGCCCAGGCCCGGAAAACUGC [theeternabot_exclusion_KL_Trp_A_13]"
  apparent KD of K4 kissing-loop reporter / nM: 241
- RESIDUE STRING: "UGACUGGACUGAAGGAGCGCAAAACUCCUAGUGAUGUUAGGAAAACGAGACAAAGUCUCGAUGCAGGUAGGUCGCAGUCUAGUCU"
  apparent KD of K4 kissing-loop reporter / nM: 209
- RESIDUE STRING: "AUUAAUUUCAGAGGAUAUGCUUAAUUGAUUAAAUAUAAUCUAUUAUGCAGUGAUGUUGCAUUUUUUGCAGAAGGCUGAUUUAUAA [JR_SSFMNB_Sub017]"
  apparent KD of K4 kissing-loop reporter / nM: 136
- RESIDUE STRING: "GUGCGCGGUGCGGCCGCCACUCGCAUGAGAGUGAUGUUCUCGGGACGGACGGAAGUCCGUCAUGUGAGGACCGGGCAUGGCUGCG [#2 Same State - Tryptophan B Attempt #10 (HarryS)]"
  apparent KD of K4 kissing-loop reporter / nM: 894
- RESIDUE STRING: "UAAUUUAUGUCUUUAAUUUUAUAAUCAGAUACCAGUGAUUUAUGACACCCUUGGCAGCUGUAUUGAGUGAUGUUCUUAUACUUAA [JR_Nu_ExcTheophyA_Sub022]"
  apparent KD of K4 kissing-loop reporter / nM: 140
- RESIDUE STRING: "GGAUAGGACACGGCCGCCACUACCGAGGAUACUCGAAACAUUUCCUCAGAUGAGUGAUGUUCAUCUAGGACCGGGUGUCCUAUCG [KL-XTryp-B19 #analogue]"
  apparent KD of K4 kissing-loop reporter / nM: 125
- RESIDUE STRING: "UGAUAGGACAGAAGGAGCGGUAGUGAUGUUGCCAAAAGUAUAAGGUGUCAAAAGACACCCUGCCAGGUAGGUCGCUGUCCUAUCU"
  apparent KD of K4 kissing-loop reporter / nM: 134
- RESIDUE STRING: "CAUCUCAUGAAAUGAGAUGUCAUCAGUGAAGGAGCGCUAUUAGCAGCAGGUAGGUCGCACUGAAGCGGAGUGAUGUUCUGUAUGA [Arg A SS t3]"
  apparent KD of K4 kissing-loop reporter / nM: 170
